details: buffer; pH 7.4; 200.0 µM
Readout kind: log10(solubility kinetic) (log10 of the value in mg/mL)
The common logarithm of solubility kinetic in mg/mL is what is listed.

Input "CCOC(=O)c1ccc(N2C(=O)c3cccc4c(C(=O)O)ccc(c34)C2=O)cc1" , output reported log10(solubility kinetic). -1.60

Input "CCC(=O)N/C(N)=N/c1nc2ccccc2o1" , output reported log10(solubility kinetic). -1.83

Input CC(C)(C)C1CCC(OC(=O)CN2CCCCC2)CC1 (stereo unspecified) , output reported log10(solubility kinetic). -2.62

Input "Nc1nc(NCc2ccco2)nc(Nc2cccc(F)c2)c1[N+](=O)[O-]" , output reported log10(solubility kinetic). -3.52

Input Cc1cccc(C2C3=C(CCCC3=O)N=C3c4ccccc4C(=O)C32)c1 (stereo unspecified) , output reported log10(solubility kinetic). -2.64

----------
conditions: buffer; pH 7.4; 200.0 µM
Readout kind: solubility kinetic (µg/mL)
All answers are understood in µg/mL, so give the number only.

Input "CN(CC(=O)Nc1cccc(F)c1)C(=O)c1ccc(N2CCOCC2)c([N+](=O)[O-])c1" , output reported solubility kinetic. 33.7

Input "CN1CCN(CC(=O)Nc2c(C(=O)c3ccccc3)oc3ccccc23)CC1" , output reported solubility kinetic. 48.4

Input "O=C(OCC(=O)N1CCOCC1)c1ccccc1OCc1ccccc1Cl" , output reported solubility kinetic. 54.9

Input "COc1ccc(S(=O)(=O)N(CCC#N)Cc2ccco2)cc1OC" , output reported solubility kinetic. 28.2

Input "CC(C)=CC(=O)OCC(=O)Nc1cc(C)ccc1C" , output reported solubility kinetic. 15

----------
conditions: buffer; pH 7.4; 200.0 µM
For each of the molecules below, state its solubility kinetic.

Input "O=C(COC(=O)/C=C/c1ccc(Cl)c(Cl)c1)NC1CC1" , output reported solubility kinetic. 4.4 µg/mL

Input "Cc1ccc2cccc(OCc3ccc(F)cc3)c2n1" , output reported solubility kinetic. 6 µg/mL

Input "COc1ccc(C(=O)Nc2nccs2)cc1" , output reported solubility kinetic. 8.1 µg/mL

Input "COCCNCC(=O)Nc1ccc(OC(F)(F)F)cc1.Cl" , output reported solubility kinetic. 48.8 µg/mL

Input "O=C(CCCn1cnc([N+](=O)[O-])n1)Nc1cc(Cl)ccc1O" , output reported solubility kinetic. > 48.9 µg/mL

Input "CCOc1ccc(Oc2ccc(Cl)cc2N)cc1.Cl" , output reported solubility kinetic. 4.5 µg/mL

Input "COc1ccccc1NC(=O)COc1cccc2c1CCNC2=O" , output reported solubility kinetic. 6.9 µg/mL

Input "CCSc1ncccc1C(=O)N[C@@H](CCSC)C(=O)OC" , output reported solubility kinetic. 36.1 µg/mL

Input O=C(CC1CC2CCC1C2)NC1CCCCCCC1 (configuration not stated) , output reported solubility kinetic. 4.5 µg/mL

Input "CC(C)(C)S(=O)(=O)c1cnc(-c2cnccn2)nc1N" , output reported solubility kinetic. > 44 µg/mL

Input "CCOc1ccc(C(=O)OCC(=O)N2CCCC2)cc1" , output reported solubility kinetic. > 41.6 µg/mL

Input "O=C(Nc1ccc(Cl)cn1)c1ccc2[nH]c(=O)c(=O)[nH]c2c1" , output reported solubility kinetic. 11.7 µg/mL

----------
settings: buffer; pH 7.4; 200.0 µM
For each of the compounds below, state its solubility kinetic.
All answers are understood in µg/mL, so give the number only.

Input "Cc1ccc(NC(=O)COc2cccc3ccccc23)c(O)c1" , output reported solubility kinetic. 3.8

Input "CN(CC(=O)Nc1cccc(F)c1)C(=O)c1ccc(OCc2cn3ccccc3n2)cc1" , output reported solubility kinetic. 9.2

Input "Cc1ccc(CC(=O)Nc2cc(C)on2)cc1" , output reported solubility kinetic. 14
